System: UACC-62 melanoma
assay: NCI-60 one-dose screen, 48 h
condition-info: 10 µM unless noted
Compounds without any hit were thinned out: in the full panel of roughly 83,000, 20% have a hit. Activity calls are given as the source filed them. How the source made its calls: active means growth percent below 10; inactive means the rest.
In this exercise, the only acceptable responses are 1.0 = active, 0.0 = inactive

COc1ccc(Cl)cc1NC(=O)c1cc2c(n1C)-c1nc(NC(=O)C(C)C)sc1CC2
0.0
O=C1OC(c2ccc(-c3ccccc3)cc2)=C/C1=C/C=C/c1ccccc1
0.0

Ask: Answer briefly: the call reported for CC(=O)Nc1ccc([I+]c2ccc([N+](=O)[O-])cc2)cc1 in this assay.
Result: 0.0

Ask: Answer briefly: the call reported for CN(C)c1ccc2cc(-c3nc4ccccc4s3)c(N)nc2c1 in this assay.
Result: 0.0

Ask: Answer briefly: the call reported for Clc1ccc2c(c1)nnn1c3ncccc3c(Br)c21 in this assay.
Result: 0.0

Ask: Answer briefly: the call reported for Nc1nc(Cl)c2c(C(F)(F)F)cn(CC3CCNCC3)c2n1 in this assay.
Result: 0.0

Ask: Answer briefly: the call reported for C=C1C(=O)O[C@H]2[C@H]1CC/C(COC(=O)c1ccc3ccccc3c1)=C\CC[C@@]1(C)O[C@@H]21 in this assay.
Result: 1.0

Ask: Answer briefly: the call reported for O=[N+]([O-])c1ccc(NS(=O)(=O)c2ccccc2)c2ccccc12 in this assay.
Result: 0.0
